assayed-target: human PD-1 / PD-L1-Ig binding on Jurkat cell line over-expressing human PD-1 (Jurkat-PD-1) (Homo sapiens, UniProt Q15116)
Construct: expressed in transfected cells; host or cells: Jurkat
Sequence (Q15116 25-288): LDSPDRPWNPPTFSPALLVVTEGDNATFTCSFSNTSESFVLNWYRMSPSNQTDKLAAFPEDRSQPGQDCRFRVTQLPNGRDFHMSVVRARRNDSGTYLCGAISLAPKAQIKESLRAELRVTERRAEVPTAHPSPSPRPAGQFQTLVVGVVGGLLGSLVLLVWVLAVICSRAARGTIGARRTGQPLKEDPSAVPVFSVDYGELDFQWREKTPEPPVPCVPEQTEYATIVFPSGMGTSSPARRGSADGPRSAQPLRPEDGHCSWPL
test-description: Jurkat-PD-1 Cell Binding High-Content Screening Assay (CBA)
Assay type: cell-based
particulars: Jurkat-PD-1 cells, PE-labeled PD-L1-Ig 20 nM final; read-out: Jurkat HPD1_PDL1 IC50
Where a SMILES comes first, the peptide text is derived from it. Bridges are numbered along the chain shown (N, C = ends). [ ]: non-standard residue; d: D form. Bip = N[C@@H](Cc1ccc(-c2ccccc2)cc1)C(=O)O; Dab = NCC[C@H](N)C(=O)O
test-readout: IC50 (µM)
One number for each entry, in µM.

Prompt: Can you share its IC50? I mean this compound: CC(C)C[C@@H]1NC(=O)[C@H](CCN)NC(=O)[C@@H](CC(C)C)NC(=O)[C@H](C)NC(=O)[C@H](CCCNC(=N)N)NC(=O)[C@H](Cc2ccc(-c3ccccc3)cc2)NC(=O)[C@H](C(C)C)NC(=O)[C@H](Cc2c[nH]c3ccccc23)NC(=O)[C@H](CC(=O)O)NC(=O)[C@H](Cc2ccc(O)cc2)NC(=O)[C@H](CC(N)=O)NC(=O)CSC[C@@H](C(=O)N[C@@H](C)C(N)=O)NC(=O)[C@H]([C@@H](C)O)NC(=O)[C@H](C(C)C)NC1=O [Compound 1001] ({CH2CO}-NYDWV[Bip]RA[dL][Dab]LVTCA-NH2; thioether N-14)
Completion: 0.14

====

assayed-target: human PD-1 / PD-L1-Ig binding on Jurkat cell line over-expressing human PD-1 (Jurkat-PD-1) (Homo sapiens, UniProt Q15116)
Construct: expressed in transfected cells; host or cells: Jurkat
test-description: Jurkat-PD-1 Cell Binding High-Content Screening Assay (CBA)
Format: cell-based
particulars: Jurkat-PD-1 cells, PE-labeled PD-L1-Ig 20 nM final; read-out: Jurkat HPD1_PDL1 IC50
Where a SMILES comes first, the peptide text is derived from it. Bridges are numbered along the chain shown (N, C = ends). [ ]: non-standard residue; d: D form. ξ: configuration not given here. Bip = N[C@@H](Cc1ccc(-c2ccccc2)cc1)C(=O)O; ξW = NC(Cc1c[nH]c2ccccc12)C(=O)O; Dab = NCC[C@H](N)C(=O)O
test-readout: pIC50
One number for each entry, as −log10 of the molar value.

compound | test-readout | assay-result
CC(C)C[C@@H]1NC(=O)C(Cc2c[nH]c3ccccc23)NC(=O)[C@H](CC(=O)O)NC(=O)[C@H](Cc2ccc(O)cc2)NC(=O)[C@H](Cc2ccccc2)NC(=O)CSC[C@@H](C(=O)N[C@@H](C)C(N)=O)NC(=O)[C@H](CO)NC(=O)[C@H](C(C)C)NC(=O)[C@H](CC(C)C)NC(=O)[C@H](CC(N)=O)NC(=O)[C@@H](CC(C)C)NC(=O)[C@H](CCN)NC(=O)[C@H](C(C)C)NC(=O)[C@H](Cc2ccc(-c3ccccc3)cc2)NC1=O (stereo partly drawn) [Compound 1214] ({CH2CO}-FYD[ξW]L[Bip]V[Dab][dL]NLVSCA-NH2; thioether N-14) | pIC50 | 7.85
CC(C)C[C@H]1NC(=O)[C@H](CCCN)NC(=O)[C@H](CCC(=O)O)NC(=O)[C@H](Cc2ccc(-c3ccccc3)cc2)NC(=O)[C@H](C(C)C)NC(=O)[C@H](Cc2c[nH]c3ccccc23)NC(=O)[C@H](CC(=O)O)NC(=O)[C@H](Cc2ccc(N)cc2)NC(=O)[C@H](Cc2ccncc2)NC(=O)CSC[C@@H](C(=O)N[C@@H](C)C(N)=O)NC(=O)[C@H]([C@@H](C)O)NC(=O)[C@H](C(C)C)NC(=O)[C@H](CC2CCCCC2)NC(=O)[C@H](CCN)NC1=O [Compound 2184] | pIC50 | 7.55
CC(C)C[C@H]1NC(=O)[C@H](CCCN)NC(=O)[C@H](CCC(=O)O)NC(=O)[C@H](Cc2ccc(-c3ccccc3)cc2)NC(=O)[C@H](C(C)C)NC(=O)[C@H](Cc2ccccc2F)NC(=O)[C@H](CC(=O)O)NC(=O)[C@H](Cc2ccc(C#N)cc2)NC(=O)[C@H](Cc2ccc(OCC(=O)O)cc2)NC(=O)CSC[C@@H](C(=O)N[C@@H](C)C(N)=O)NC(=O)[C@H]([C@@H](C)O)NC(=O)[C@H](C(C)C)NC(=O)[C@H](CC2CCCCC2)NC(=O)[C@H](CCN)NC1=O [Compound 2215] | pIC50 | 7.52

Next compound, pIC50 to be filled in.
Prompt: Reported pIC50 for Cc1cccc(C[C@@H]2NC(=O)[C@H](CC(=O)O)NC(=O)[C@H](Cc3ccc(OCC(=O)O)cc3)NC(=O)[C@H](CN)NC(=O)CSC[C@@H](C(=O)N[C@@H](C)C(N)=O)NC(=O)[C@H]([C@@H](C)O)NC(=O)[C@H](C(C)C)NC(=O)[C@H](CC3CCCCC3)NC(=O)[C@H](CCN)NC(=O)[C@@H](CC(C)C)NC(=O)[C@H](CCCN)NC(=O)[C@H](CCCNC(N)=O)NC(=O)[C@H](Cc3ccc(-c4ccccc4)cc3)NC(=O)[C@H](C(C)C)NC2=O)c1 [Compound 1208] : what is it?
Completion: 8.57

====

Kindly supply the reported IC50 values for the records listed here.
assayed-target: human PD-1 / PD-L1-Ig binding on Jurkat cell line over-expressing human PD-1 (Jurkat-PD-1) (Homo sapiens)
Construct: expressed in transfected cells; host or cells: Jurkat
test-description: Jurkat-PD-1 Cell Binding High-Content Screening Assay (CBA)
Format: cell-based
particulars: Jurkat-PD-1 cells, PE-labeled PD-L1-Ig 20 nM final; read-out: Jurkat HPD1_PDL1 IC50
Method: Example 3. Jurkat-PD-1 Cell Binding High-Content Screening Assay (CBA) Jurkat-PD-1 Cell Binding High-Content Screening Assay (CBA). Phycoerythrin (PE) was covalently linked to the Ig epitope tag of human PD-L1-Ig and fluorescently-labeled PD-L1-Ig was used for binding studies with a Jurkat cell line over-expressing human PD-1 (Jurkat-PD-1). Briefly, 8×10^3 Jurkat-hPD-1 cells were seeded into 384 well plates in 20 μl of DMEM supplemented with 10% fetal calf serum. […]
Answers are plain numbers, in nM.

compound | IC50 [nM]
CC(C)C[C@H]1NC(=O)[C@H](CCCN)NC(=O)[C@H](CCC(=O)O)NC(=O)[C@H](Cc2ccc(-c3ccccc3)cc2)NC(=O)[C@H](C(C)C)NC(=O)[C@H](Cc2ccc(F)c(F)c2)NC(=O)[C@H](CC(=O)O)NC(=O)[C@H](Cc2ccc(OCC(=O)O)cc2)NC(=O)[C@H](CN)NC(=O)CSC[C@@H](C(=O)N[C@@H](C)C(N)=O)NC(=O)[C@H]([C@@H](C)O)NC(=O)[C@H](C(C)C)NC(=O)[C@H](CC2CCCCC2)NC(=O)[C@H](CCN)NC1=O [Compound 2148] | 17.5

Read the next record carefully.
Prompt: Given CC(C)C[C@H]1NC(=O)[C@H](CCCN)NC(=O)[C@H](C(C)C)NC(=O)[C@H](Cc2ccc(-c3ccccc3)cc2)NC(=O)[C@H](C(C)C)NC(=O)[C@H](Cc2c[nH]c3ccccc23)NC(=O)[C@H](CC(=O)O)NC(=O)[C@H](Cc2ccc(C(=O)O)cc2)NC(=O)[C@H](Cc2ccc(OCC(=O)O)cc2)NC(=O)CSC[C@@H](C(=O)N[C@@H](C)C(N)=O)NC(=O)[C@H]([C@@H](C)O)NC(=O)[C@H](C(C)C)NC(=O)[C@H](CC2CCCCC2)NC(=O)[C@H](CCN)NC1=O [Compound 1691] , state its recorded IC50.
Completion: 32.8

====

assayed-target: human PD-1 / PD-L1-Ig binding on Jurkat cell line over-expressing human PD-1 (Jurkat-PD-1) (Homo sapiens, UniProt Q15116)
Construct: expressed in transfected cells; host or cells: Jurkat
test-description: Jurkat-PD-1 Cell Binding High-Content Screening Assay (CBA)
Assay type: cell-based
particulars: Jurkat HPD1_PDL1 IC50, Jurkat-PD-1 cells, PE-labeled PD-L1-Ig 20 nM final
Description: Example 3. Jurkat-PD-1 Cell Binding High-Content Screening Assay (CBA) Jurkat-PD-1 Cell Binding High-Content Screening Assay (CBA). Phycoerythrin (PE) was covalently linked to the Ig epitope tag of human PD-L1-Ig and fluorescently-labeled PD-L1-Ig was used for binding studies with a Jurkat cell line over-expressing human PD-1 (Jurkat-PD-1). Briefly, 8×10^3 Jurkat-hPD-1 cells were seeded into 384 well plates in 20 μl of DMEM supplemented with 10% fetal calf serum. […]
Where a SMILES comes first, the peptide text is derived from it. Bridges are numbered along the chain shown (N, C = ends). [ ]: non-standard residue; d: D form. The star is where a group is joined. Bip = N[C@@H](Cc1ccc(-c2ccccc2)cc1)C(=O)O; Carboxymethyl = O=C(O)C*; Dap = NC[C@H](N)C(=O)O
test-readout: IC50 (nM)
One number for each entry, in nM.

Use the examples below as a reference point.
compound | IC50 [nM]
CC(C)C[C@@H]1NC(=O)[C@H](Cc2c[nH]c3ccccc23)NC(=O)[C@H](CC(=O)O)NC(=O)[C@H](Cc2ccc(OCC(=O)O)cc2)NC(=O)[C@H](CN)NC(=O)CSC[C@@H](C(=O)NCC(N)=O)NC(=O)[C@H](CO)NC(=O)[C@H](C(C)C)NC(=O)[C@H](CC(C)C)NC(=O)[C@H](CC(N)=O)NC(=O)[C@@H](CC(C)C)NC(=O)[C@H](CN)NC(=O)[C@H](C(C)C)NC(=O)[C@H](Cc2ccc(-c3ccccc3)cc2)NC1=O [Compound 1276] ({CH2CO}-[Dap]Y(Carboxymethyl)DWL[Bip]V[Dap][dL]NLVSCG-NH2; thioether N-14) | 8.1
CC(C)C[C@H]1NC(=O)[C@H](CCCN)NC(=O)[C@H](C(C)C)NC(=O)[C@H](Cc2ccc(-c3ccccc3)cc2)NC(=O)[C@H](C(C)C)NC(=O)[C@H](Cc2c[nH]c3ccccc23)NC(=O)[C@H](CC(=O)O)NC(=O)[C@H](Cc2ccc(OCC(=O)O)cc2)NC(=O)[C@H](CN)NC(=O)CSC[C@@H](C(=O)N[C@@H](C)C(=O)N[C@@H](Cc2ccc(OCc3ccccc3)cc2)C(N)=O)NC(=O)[C@H]([C@@H](C)O)NC(=O)[C@H](C(C)C)NC(=O)[C@H](CC2CCCCC2)NC(=O)[C@H](CCN)NC1=O | 128
CC(C)C[C@H]1NC(=O)[C@H](CCCN)NC(=O)[C@H](CCC(=O)O)NC(=O)[C@H](Cc2ccc(-c3ccccc3)cc2)NC(=O)[C@H](C(C)C)NC(=O)[C@H](Cc2c[nH]c3ccccc23)NC(=O)[C@H](CC(=O)O)NC(=O)[C@H](Cc2ccc(OCC(=O)O)cc2)NC(=O)[C@H](Cc2ccncc2)NC(=O)CSC[C@@H](C(=O)N[C@@H](C)C(N)=O)NC(=O)[C@H]([C@@H](C)O)NC(=O)[C@H](C(C)C)NC(=O)[C@H](CC2CCCCC2)NC(=O)[C@H](Cc2c[nH]cn2)NC1=O | 15.3
CC[C@H](C)[C@@H]1NC(=O)[C@H](Cc2ccc(-c3ccccc3)cc2)NC(=O)[C@H](C(C)C)NC(=O)[C@H](Cc2cccc(OC)c2)NC(=O)[C@H](CC(=O)O)NC(=O)[C@H](Cc2ccc(OCC(=O)O)cc2)NC(=O)[C@H](Cc2ccncc2)NC(=O)CSC[C@@H](C(=O)N[C@@H](C)C(N)=O)NC(=O)[C@H]([C@@H](C)O)NC(=O)[C@H](C(C)C)NC(=O)[C@H](CC(C)C)NC(=O)[C@H](CCN)NC(=O)[C@@H](CC(C)C)NC(=O)[C@H](CCCN)NC1=O | 10.7
Cc1cccc(C[C@@H]2NC(=O)[C@H](CC(=O)O)NC(=O)[C@H](Cc3ccc(C(=O)O)cc3)NC(=O)[C@H](Cc3ccncc3)NC(=O)CSC[C@@H](C(=O)N[C@@H](C)C(N)=O)NC(=O)[C@H]([C@@H](C)O)NC(=O)[C@H](C(C)C)NC(=O)[C@H](CC3CCCCC3)NC(=O)[C@H](Cc3c[nH]cn3)NC(=O)[C@@H](CC(C)C)NC(=O)[C@H](CCCN)NC(=O)[C@H](C(C)C)NC(=O)[C@H](Cc3ccc(-c4ccccc4)cc3)NC(=O)[C@H](C(C)C)NC2=O)c1 | 22.4
CC(C)C[C@H]1NC(=O)[C@H](CCCN)NC(=O)[C@H](Cc2ccc(OCc3ccccc3)cc2)NC(=O)[C@H](Cc2ccc(-c3ccccc3)cc2)NC(=O)[C@H](C(C)C)NC(=O)[C@H](Cc2c[nH]c3ccccc23)NC(=O)[C@H](CC(=O)O)NC(=O)[C@H](Cc2ccc(OCC(=O)O)cc2)NC(=O)[C@H](CN)NC(=O)CSC[C@@H](C(=O)N[C@@H](C)C(N)=O)NC(=O)[C@H]([C@@H](C)O)NC(=O)[C@H](C(C)C)NC(=O)[C@H](CC2CCCCC2)NC(=O)[C@H](CCN)NC1=O | 94.9

Dear colleague, could you send me IC50 for each of the items below? Thanks.
1. CC[C@H](C)[C@@H]1NC(=O)[C@H](Cc2ccc(-c3ccccc3)cc2)NC(=O)[C@H](C(C)C)NC(=O)[C@H](Cc2cccc(C(F)(F)F)c2)NC(=O)[C@H](CC(=O)O)NC(=O)[C@H](Cc2ccc(OCC(=O)O)cc2)NC(=O)[C@H](Cc2ccncc2)NC(=O)CSC[C@@H](C(=O)N[C@@H](C)C(N)=O)NC(=O)[C@H]([C@@H](C)O)NC(=O)[C@H](C(C)C)NC(=O)[C@H](CC2CCCCC2)NC(=O)[C@H](CCN)NC(=O)[C@@H](CC(C)C)NC(=O)[C@H](CCCN)NC1=O
2. CC(C)C[C@H]1NC(=O)[C@H](CCCN)NC(=O)[C@H](CCCNC(N)=O)NC(=O)[C@H](Cc2ccc(-c3ccccc3)cc2)NC(=O)[C@H](C(C)C)NC(=O)[C@H](Cc2c[nH]c3ccccc23)NC(=O)[C@H](CC(=O)O)NC(=O)[C@H](Cc2ccc(C(=O)O)cc2)NC(=O)[C@H](Cc2ccncc2)NC(=O)CSC[C@@H](C(=O)N[C@@H](C)C(N)=O)NC(=O)[C@H]([C@@H](C)O)NC(=O)[C@H](C(C)C)NC(=O)[C@H](CC2CCCCC2)NC(=O)[C@H](Cc2c[nH]cn2)NC1=O

Completion:
1. 25.8
2. 9.9
